Molecular target: human serum albumin (HSA) (Homo sapiens)
Experiment: HSA 1,536-well fluorescence polarization displacement assay (dansyl sarcosine probe, Sudlow Site II)
Format: binding
Design: Albumin solution from human serum (HSA, Sigma-Aldrich, St. Louis, MO); purchased Sigma-Aldrich; host or cells: human serum
Conditions: read-out: HSA 1,536-well IC50
Procedure: For 1,536-well format (Table 2), a 3 µL mixture of HSA and dansyl sarcosine (bound control) or 3 µL of dansyl sarcosine (unbound control) were dispensed into a 1,536-well assay plate using a BioRAPTR. The plate was centrifuged at 1,000 rpm for 15 seconds, covered and incubated for 10 minutes, and FP data were collected on a ViewLux using the optics described above. FP was measured 15 min after compound addition. […]
pIC50: −log10 of the molar value.
readout.label: pIC50

These recorded examples may help you get a feel for the data.
| molecule | tested.target | pIC50 |
| --- | --- | --- |
| CN(C)CCC=C1c2ccccc2CCc2ccccc21 [Amitriptyline, amitriptyline] | human serum albumin (HSA) (Homo sapiens) | < 2.82 |
| C=CCc1ccccc1OCC(O)CNC(C)C (stereo not drawn) [Alprenolol, alprenolol] | human serum albumin (HSA) (Homo sapiens) | < 2.82 |

Inquiry: Given OCCN(CCO)c1nc(N2CCCCC2)c2nc(N(CCO)CCO)nc(N3CCCCC3)c2n1 [Dipyridamole, dipyridamole] , state its recorded pIC50.
Reply text: < 2.82

###

molecular target: α1-acid glycoprotein (AGP) (Homo sapiens); assay: biochemical
Sequence (P02763 19-201): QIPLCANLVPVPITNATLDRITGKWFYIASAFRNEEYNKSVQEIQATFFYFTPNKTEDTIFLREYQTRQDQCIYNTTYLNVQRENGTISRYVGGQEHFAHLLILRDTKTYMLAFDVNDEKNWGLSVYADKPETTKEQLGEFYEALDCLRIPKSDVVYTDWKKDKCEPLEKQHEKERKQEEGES
Listing: IC50 of selected molecules
Provide the reading as a plain figure in µM.

These recorded examples may help you get a feel for the data.
| molecule | IC50 / µM |
| --- | --- |
| CN(C)CCC=C1c2ccccc2CCc2ccccc21 [Amitriptyline, amitriptyline] | 224 |
| CCCC(=O)NCCc1c2n(c3ccc(OC)cc13)CCCc1ccccc1-2 [K 185] | 10.5 |
| Nc1nc(N)c2nc(CNc3ccc(C(=O)N[C@@H](CCC(=O)O)C(=O)O)cc3)cnc2n1 [Aminopterin, aminopterin] | 306 |
| COc1cc2nc(N3CCN(C(=O)OCc4ccccc4)C(C(=O)NC(C)(C)C)C3)nc(N)c2cc1OC [L-765,314] | 2.03 |
| O=C1N(c2ccccc2)c2ccccc2C1(Cc1ccncc1)Cc1ccncc1 [Linopirdine, linopirdine] | 21.7 |

Inquiry: Given CCC(C)N(C)C(=O)c1cc2ccccc2c(-c2ccccc2Cl)n1 (stereo not drawn) [PK 11195] , state its recorded IC50.
Reply text: 23.9

Inquiry: Given OCc1ccc(-c2nn(Cc3ccccc3)c3ccccc23)o1 [YC-1] , state its recorded IC50.
Reply text: 4.83

Inquiry: Given C=CCc1ccccc1OCC(O)CNC(C)C (stereo not drawn) [Alprenolol, alprenolol] , state its recorded IC50.
Reply text: 273

Inquiry: Given CC#C[C@]1(O)CC[C@H]2[C@@H]3CCC4=CC(=O)CCC4=C3[C@@H](c3ccc(N(C)C)cc3)C[C@@]21C [Mifepristone, mifepristone] , state its recorded IC50.
Reply text: 2.51

Inquiry: Given Nc1ccc2c3c(cccc13)C(=O)NC2=O [4-Amino-1,8-naphthalimide, 4-amino-1,8-naphthalimide] , state its recorded IC50.
Reply text: 832

###

Listing: IC50 of selected compounds
biological target: human serum albumin (HSA) (Homo sapiens, UniProt P02768); experiment: HSA 1,536-well fluorescence polarization displacement assay (dansyl sarcosine probe, Sudlow Site II); format: binding; design: Albumin solution from human serum (HSA, Sigma-Aldrich, St. Louis, MO); purchased Sigma-Aldrich; host or cells: human serum; details: read-out: HSA 1,536-well IC50 (extrapolated)
Sequence (P02768 25-609): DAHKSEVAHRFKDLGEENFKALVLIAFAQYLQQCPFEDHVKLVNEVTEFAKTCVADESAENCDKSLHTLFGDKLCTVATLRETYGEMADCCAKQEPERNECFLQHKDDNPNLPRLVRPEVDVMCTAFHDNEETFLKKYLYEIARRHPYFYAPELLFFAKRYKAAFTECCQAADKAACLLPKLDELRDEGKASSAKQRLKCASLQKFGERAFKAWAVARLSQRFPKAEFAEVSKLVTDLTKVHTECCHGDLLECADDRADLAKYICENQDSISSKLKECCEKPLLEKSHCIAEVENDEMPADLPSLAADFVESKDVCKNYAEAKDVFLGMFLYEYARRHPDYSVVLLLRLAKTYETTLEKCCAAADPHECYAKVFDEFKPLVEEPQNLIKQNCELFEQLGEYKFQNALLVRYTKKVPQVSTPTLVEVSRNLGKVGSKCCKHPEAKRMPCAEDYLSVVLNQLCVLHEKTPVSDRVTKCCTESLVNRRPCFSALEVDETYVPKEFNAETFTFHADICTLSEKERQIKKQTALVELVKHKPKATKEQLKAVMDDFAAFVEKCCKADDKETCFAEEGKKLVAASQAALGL

| compound | IC50 |
| --- | --- |
| CC(C)NCC(O)COc1cccc2ccccc12 (centres unmarked) [Propranolol, propranolol] | > 1510 µM |

Consider the additional compound presented here.
Inquiry: Given CN(C)CCCN1c2ccccc2CCc2ccccc21 [Imipramine, imipramine] , state its recorded IC50.
Reply text: > 1510 µM

###

Listing: pIC50 of selected compounds
biological target: α1-acid glycoprotein (AGP) (Homo sapiens); test: AGP LOPAC1280 1,536-well qHTS screen (FP)
pIC50 (log units): -log10 of the concentration in mol/L.

| compound | pIC50 |
| --- | --- |
| CCC(C)N(C)C(=O)c1cc2ccccc2c(-c2ccccc2Cl)n1 (stereo not drawn) | 4.65 |

Consider the additional compound presented here.
Inquiry: Given Nc1nc(N)c2nc(CNc3ccc(C(=O)N[C@@H](CCC(=O)O)C(=O)O)cc3)cnc2n1 , state its recorded pIC50.
Reply text: 4.25

###

Listing: Kd of selected compounds
biological target: HSA protein-coated beads (Homo sapiens, UniProt P02768); experiment: HSA protein-coated bead assay with HPLC analysis; conditions: compound 50 µM
Provide the reading as a plain figure in µM.

These recorded examples may help you get a feel for the data.
| compound | Kd, µM |
| --- | --- |
| CC(C)NCC(O)COc1cccc2ccccc12 (stereo not shown) | 548 |
| CN(C)CCCN1c2ccccc2CCc2ccccc21 | 149 |
| OCCN(CCO)c1nc(N2CCCCC2)c2nc(N(CCO)CCO)nc(N3CCCCC3)c2n1 | 35.6 |

Inquiry: Given CN(C)CCC=C1c2ccccc2CCc2ccccc21 , state its recorded Kd.
Reply text: 119

###

biological target: human serum albumin (HSA) (Homo sapiens); test: in vitro
pIC50: −log10 of the molar value.
readout.label: pIC50

Inquiry: Reported pIC50 for human serum albumin (HSA) (Homo sapiens), given COc1ccc(C(CN(C)C)C2(O)CCCCC2)cc1 (stereo not shown) ?
Reply text: < 3.82

###

target: α1-acid glycoprotein (AGP) (Homo sapiens); experiment: AGP LOPAC1280 1,536-well qHTS screen (FP); conditions: IC50 in AGP LOPAC1280 screen, validation set members present in the LOPAC1280 collection
readout.label: pIC50
pIC50 (log units): -log10 of the concentration in mol/L.

| molecule | tested.target | pIC50 |
| --- | --- | --- |
| CN(C)CCCN1c2ccccc2Sc2ccc(Cl)cc21 [Chlorpromazine, chlorpromazine] | α1-acid glycoprotein (AGP) (Homo sapiens) | 4.35 |

Inquiry: Given CC(C)NCC(O)COc1cccc2ccccc12 (centres unmarked) [Propranolol, propranolol] , state its recorded pIC50.
Reply text: 4.30

###

target: human serum albumin (HSA) (Homo sapiens, UniProt P02768); experiment: in vitro; conditions: probe dansyl sarcosine
pIC50: −log10 of the molar value.
Listing: pIC50 of selected molecules

These recorded examples may help you get a feel for the data.
| molecule | readout.label | value.observed |
| --- | --- | --- |
| O=C1N(c2ccccc2)c2ccccc2C1(Cc1ccncc1)Cc1ccncc1 | pIC50 | < 3.82 |
| CC#C[C@]1(O)CC[C@H]2[C@@H]3CCC4=CC(=O)CCC4=C3[C@@H](c3ccc(N(C)C)cc3)C[C@@]21C | pIC50 | < 3.82 |

Consider the additional molecule presented here.
Inquiry: Given CCC(C)N(C)C(=O)c1cc2ccccc2c(-c2ccccc2Cl)n1 (stereo not drawn) , state its recorded pIC50.
Reply text: < 3.82

###

Listing: IC50 of selected compounds
target: α1-acid glycoprotein (AGP) (Homo sapiens); assay: AGP LOPAC1280 1,536-well qHTS screen (FP)
Provide the reading as a plain figure in µM.

These recorded examples may help you get a feel for the data.
| compound | u | IC50 |
| --- | --- | --- |
| CCCC(=O)NCCc1c2n(c3ccc(OC)cc13)CCCc1ccccc1-2 [K 185] | µM | 20 |
| O=C1N(c2ccccc2)c2ccccc2C1(Cc1ccncc1)Cc1ccncc1 [Linopirdine, linopirdine] | µM | 35.5 |

Consider the additional compound presented here.
Inquiry: Given COc1cc2nc(N3CCN(C(=O)OCc4ccccc4)C(C(=O)NC(C)(C)C)C3)nc(N)c2cc1OC [L-765,314] , state its recorded IC50.
Reply text: 14.1

###

biological target: human serum albumin (HSA) (Homo sapiens, UniProt P02768); assay: HSA 96-well fluorescence polarization displacement assay (dansyl sarcosine probe, Sudlow Site II)
readout.label: log10 of IC50 (log10 of the value in µM)
Friendly reminder: values = log10 of IC50, unit µM.

These recorded examples may help you get a feel for the data.
| molecule | value.observed |
| --- | --- |
| CC(C)NCC(O)COc1cccc2ccccc12 (stereo not drawn) [Propranolol, propranolol] | 3.73 |
| Nc1nc(N)c2nc(CNc3ccc(C(=O)N[C@@H](CCC(=O)O)C(=O)O)cc3)cnc2n1 [Aminopterin, aminopterin] | 1.34 |
| CN(C)CCCN1c2ccccc2CCc2ccccc21 [Imipramine, imipramine] | 3.72 |
| Nc1ccc2c3c(cccc13)C(=O)NC2=O [4-Amino-1,8-naphthalimide, 4-amino-1,8-naphthalimide] | 1.57 |
| OCCN(CCO)c1nc(N2CCCCC2)c2nc(N(CCO)CCO)nc(N3CCCCC3)c2n1 [Dipyridamole, dipyridamole] | 1.79 |
| CN(C)c1cc2c(Nc3ccc4c(cnn4Cc4ccccc4)c3)ncnc2cn1 [GW2974] | 0.67 |
| CN(C)CCC=C1c2ccccc2CCc2ccccc21 [Amitriptyline, amitriptyline] | 3.83 |
| CCCC(=O)NCCc1c2n(c3ccc(OC)cc13)CCCc1ccccc1-2 [K 185] | 1.92 |

Inquiry: Given OCc1ccc(-c2nn(Cc3ccccc3)c3ccccc23)o1 [YC-1] , state its recorded log10 of IC50.
Reply text: 0.71

Inquiry: Given C=CCc1ccccc1OCC(O)CNC(C)C (stereo not drawn) [Alprenolol, alprenolol] , state its recorded log10 of IC50.
Reply text: 3.23

Inquiry: Given COc1cc2nc(N3CCN(C(=O)OCc4ccccc4)C(C(=O)NC(C)(C)C)C3)nc(N)c2cc1OC [L-765,314] , state its recorded log10 of IC50.
Reply text: 0.72
